Where do these numbers come from? They come from patent US5663139A.

These records show IC50 for HIV protease (Human immunodeficiency virus type 1 group M subtype B).
Counter-ions that a name gives are not always drawn.
Number only, in nM; omit the unit.

Consider the worked cases shown below.
CC(C)[C@H](NC(=O)[C@@H](N)Cc1cccc2ccccc12)C(=O)NC(Cc1ccccc1)C(O)P(=O)(O)C(Cc1ccccc1)NC(=O)[C@@H](NC(=O)[C@@H](N)Cc1cccc2ccccc12)C(C)C (some centres unmarked) [Example 8, dihydrobromide]
0.5
CC(C)[C@H](NC(=O)C(Cc1cccc2ccccc12)CS(=O)(=O)C(C)(C)C)C(=O)NC(Cc1ccccc1)C(O)P(=O)(O)C(Cc1ccccc1)NC(=O)[C@@H](NC(=O)C(Cc1cccc2ccccc12)CS(=O)(=O)C(C)(C)C)C(C)C (some centres unmarked)
4.2
CCOP(=O)(C(Cc1ccccc1)NC(=O)[C@@H](NC(=O)[C@@H](N)Cc1cccc2ccccc12)C(C)C)C(O)C(Cc1ccccc1)NC(=O)[C@@H](NC(=O)[C@@H](N)Cc1cccc2ccccc12)C(C)C (some centres unmarked)
15
CCOP(=O)(C(Cc1ccccc1)NC(=O)[C@@H](NC(=O)OCc1ccccc1)C(C)C)C(O)C(Cc1ccccc1)NC(=O)[C@@H](NC(=O)OCc1ccccc1)C(C)C (some centres unmarked)
70

Form field: IC50 recorded for CC(C)[C@H](NC(=O)OCc1ccccc1)C(=O)NC(Cc1ccccc1)C(O)P(=O)(O)C(Cc1ccccc1)NC(=O)[C@@H](NC(=O)OCc1ccccc1)C(C)C (some centres unmarked) with HIV protease (Human immunodeficiency virus type 1 group M subtype B) (enter value) 1.3
